// reported growth inhibition for each item listed
assay: NCI Yeast Anticancer Drug Screen. Data for the rad50 strain (AID 155);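 further: 0% = growth of vehicle-only cultures of the same strain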; conditions: S. cerevisiae rad50 strain growth inhibition; at 50.0 µM; stronger effect = higher value
Compounds without any hit were thinned out: in the full panel of roughly 79,000, 15% have a hit.
Note: unit % is implicit; provide only the numeric part.

Cc1ccc(C(c2ccc(C)c(C)c2)C(O)C(O)C(O)C(O)CO)cc1C (stereo unspecified) | -4.8
Nc1c(S(=O)(=O)O)ccc2c1C(=O)c1ccccc1C2=O | 27.9
CCCCN(CCCC)CC(C)O (stereo unspecified) | -21.8

Exam item: Which growth inhibition value is on record for CCOC(=O)c1cnc(-n2[nH]c(C)c(CCO)c2=O)[nH]c1=O ?
Marked response: -11.2

Exam item: Item: Cc1ccc(S(=O)(=O)n2cncc2CO)cc1
Marked response: -33.7

Exam item: Item: Nc1[nH]c(=S)[nH]c(=S)c1N
Marked response: -30.6

====

assay: NCI Yeast Anticancer Drug Screen. Data for the sgs1 mgt1 strain (AID 161);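 further: 0% = growth of cultures given vehicle only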; conditions: S. cerevisiae sgs1 mgt1 strain, at 50.0 µM, stronger effect = higher value
This is part of a sample that, as a whole, favours compounds with a hit. Of some 79,000 tested, about 15% had one in any assay. The source made the active and inactive calls. No stated cut-off is given here; in the data, active means growth inhibition above about 70%; inactive means the rest.
// reported growth inhibition for each item listed

CC(C(=O)c1ccc(Cl)cc1)C1=NC2NN(c3ccccc3)C(=O)C2=C1C(C)C(=O)c1ccc(Cl)cc1 (stereo unspecified) | 6% (inactive)
O=C(O)c1ccccc1C(=O)CCC(=O)c1ccccc1C(=O)O | 14.3% (inactive)
C=C1C(=O)OC2C[C@@]3(C)CCCC(=C)C3CC12 (stereo partly specified) | 32.1% (inactive)
Cc1ccc(N=CC=C2C=CN(O)C=C2)nc1 | -0.85% (inactive)
CCOC(=O)C(CC)(C(=O)OCC)C(C)CC (stereo unspecified) | 15.1% (inactive)

Could you now look at the following molecule, please?
Exam item: Which growth inhibition value is on record for COc1ccc(C(=O)Nc2ccccc2)cc1 ?
Marked response: -0.3% (inactive)

====

experiment: NCI Yeast Anticancer Drug Screen. Data for the sgs1 mgt1 strain (AID 161);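 further: 0% = growth of cultures given vehicle only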; conditions: S. cerevisiae sgs1 mgt1 strain, at 50.0 µM
Compounds without any hit were thinned out: in the full panel of roughly 79,000, 15% have a hit. Activity calls are given as the source filed them. No stated cut-off is given here; in the data, active means growth inhibition above about 70%; inactive means the rest.
Hi! Could you answer with just one of these? class 1 = active, class 0 = inactive

Take a look at these entries with their results.
Cc1noc(N)c1Sc1ccc(Br)cc1 | class 1
CN1CCCCC(C#N)(c2ccccc2)CC1 (centres undefined) | class 0
Clc1ccc(C2N(Cc3ccccc3)CCC3CCCCN32)cc1Cl (centres undefined) | class 0

Exam item: // return assay outcome for COc1cc(OC)c(OC)cc1/C=C/c1cc[n+](C)c2ccccc12
Marked response: class 0

Exam item: Item: CCC12CC3(C(=O)OC)OC1C(O)CN1CCc4c(n3c3cc(OC)ccc43)C12 (centres undefined)
Marked response: class 0

Exam item: Item: CCCCOCCOC(=O)Nc1cccc(Cl)c1
Marked response: class 0

Exam item: Item: CSc1c(C#N)c(N)n2c1C(=O)N(c1ccccc1)C2=S
Marked response: class 0

====

experiment: NCI Yeast Anticancer Drug Screen. Data for the cln2 rad14 strain (AID 165);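 further: 0% = growth equal to vehicle treated cultures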; conditions: S. cerevisiae cln2 rad14 strain, at 50.0 µM, stronger effect = higher value
About 79,000 compounds went through this panel and 15% of them were active in at least one assay; those are over-represented in the sample as a whole.
propertyMeasured: growth inhibition (%)
Note: unit % is implicit; provide only the numeric part.

See these solved cases before continuing.
O=CC(=O)c1ccc(Br)cc1 | -1.05
Cc1ccc(C(=O)NO)cc1 | -4.65
Nc1ncnc(N)c1NC(=O)c1ccccc1 | -21.4
OCC(O)CS (stereo not drawn) | 36.1
C/C(CC1CC=CCC1)=N\NC(N)=O (stereo not drawn) | -20.5
CCCC1(C)OCC(C)(C)CO1 | -28.8
CCCCCCC(O)CCCCCCCCCCC(=O)O (stereo not drawn) | -25.4

Could you now look at the following compound, please?
Exam item: Which growth inhibition value is on record for CCOc1ccc(Nc2ncnc3sc4c(c23)CCCC4)cc1 ?
Marked response: 12.7
